PROTOCOL DETAILS: Biodistribution in tumor of C57BL/6 mouse bearing mouse B16-F0 cells at 0.74 to 0.92 MBq, iv after 6 hrs
Format: ADME, organism-based, Neoplasm
PROTOCOL CONDITIONS: in vivo
VALUE KIND: Drug uptake (% ID/g)

Recorded Drug uptake, per entry:
- MOLECULE SMILES: "CCN(CC)CCNC(=O)c1ccc2cc([125I])ccc2c1.Cl"
  Drug uptake (% ID/g): 9
- MOLECULE SMILES: "CCN(CC)CCNC(=O)c1cn2cc([125I])ccc2n1.Cl.Cl"
  Drug uptake (% ID/g): 8.1
- MOLECULE SMILES: "CCN(CC)CCNC(=O)c1nc2cc([125I])ccc2[nH]1.Cl.Cl"
  Drug uptake (% ID/g): 9.9
- MOLECULE SMILES: "CCN(CC)CCNC(=O)c1cc2cc([125I])ccc2o1.Cl"
  Drug uptake (% ID/g): 7.8
- MOLECULE SMILES: "CCN(CC)CCNC(=O)c1ccc([125I])nc1.Cl.Cl"
  Drug uptake (% ID/g): 7
- MOLECULE SMILES: "CCN(CC)CCNC(=O)c1cc2c([125I])cccc2cn1.Cl.Cl"
  Drug uptake (% ID/g): 7.9

(1) CCN(CC)CCNC(=O)c1ccc(I)cc1
(2) CCN(CC)CCNC(=O)c1ccc2cc([125I])ccc2n1.Cl.Cl
(3) CCN(CC)CCNC(=O)c1cnc2cc([125I])ccc2n1.Cl.Cl
(4) CCN(CC)CCNC(=O)c1ccc2cncc([125I])c2n1.Cl.Cl
(Q) Form: Sort by [Drug uptake] Order [ ascending ] Please, when replying, give the labels in the order that was requested.
(A) 1, 4, 2, 3
(1: 7.7 % ID/g, 4: 11.4 % ID/g, 2: 17.2 % ID/g, 3: 40.7 % ID/g)

(P) CCN(CC)CCNC(=O)c1cc2cc([125I])ccc2[nH]1.Cl
(Q) CCN(CC)CCNC(=O)c1c[nH]c2ccc([125I])cc2c1=O.Cl.Cl
(Q) Compare P and Q by numeric Drug uptake and name the larger one. Answer by stating the label of the chosen item.
(A) P

====

PROTOCOL DETAILS: Biodistribution in uvea of C57BL/6 mouse bearing mouse B16-F0 cells at 0.74 to 0.92 MBq, iv after 3 hrs
Type: ADME, organism-based, Uveal tract
PROTOCOL CONDITIONS: in vivo
VALUE KIND: Drug uptake (% ID/g)

- MOLECULE SMILES: "CCN(CC)CCNC(=O)c1cn2cc([125I])ccc2n1.Cl.Cl"
  Drug uptake [% ID/g]: 19.18
- MOLECULE SMILES: "CCN(CC)CCNC(=O)c1c[nH]c2ccc([125I])cc2c1=O.Cl.Cl"
  Drug uptake [% ID/g]: 5.66

(I) CCN(CC)CCNC(=O)c1ccc2cc([125I])ccc2n1.Cl.Cl
(II) CCN(CC)CCNC(=O)c1ccc2cncc([125I])c2n1.Cl.Cl
(Q) Between the two listed entries I and II , which has its Drug uptake at the higher number? Write down the label attached to your selection.
(A) I

(I) CCN(CC)CCNC(=O)c1cc2c([125I])cccc2cn1.Cl.Cl
(II) CCN(CC)CCNC(=O)c1cc2cc([125I])ccc2o1.Cl
(Q) Would you let me know which has the greater Drug uptake value, I or II ? Reply with the label of the item you choose.
(A) II
(II: 20.11 % ID/g, I: 13.87 % ID/g)

====

PROTOCOL DETAILS: Biodistribution in tumor of C57BL/6 mouse bearing mouse B16-F0 cells at 0.74 to 0.92 MBq, iv after 3 hrs
Assay type: ADME, organism-based, Neoplasm
PROTOCOL CONDITIONS: in vivo
VALUE KIND: Drug uptake (% ID/g)

- MOLECULE SMILES: "CCN(CC)CCNC(=O)c1c[nH]c2ccc([125I])cc2c1=O.Cl.Cl"
  Drug uptake (% ID/g): 4.1
- MOLECULE SMILES: "CCN(CC)CCNC(=O)c1ccc2cc([125I])ccc2c1.Cl"
  Drug uptake (% ID/g): 11.4
- MOLECULE SMILES: "CCN(CC)CCNC(=O)c1ccc(I)cc1"
  Drug uptake (% ID/g): 9.1
- MOLECULE SMILES: "CCN(CC)CCNC(=O)c1cc2cc([125I])ccc2[nH]1.Cl"
  Drug uptake (% ID/g): 10.2

(1) CCN(CC)CCNC(=O)c1cc2cc([125I])ccc2o1.Cl
(2) CCN(CC)CCNC(=O)c1ccc2cncc([125I])c2n1.Cl.Cl
(3) CCN(CC)CCNC(=O)c1cnc2cc([125I])ccc2n1.Cl.Cl
(Q) Put the entries in order of Drug uptake, starting with the largest number. Output spec: labels arranged per the requested ranking.
(A) 3, 2, 1

====

PROTOCOL DETAILS: Partition coefficient, log P in phosphate buffer solution at pH 7.4
Type: physicochemical
VALUE KIND: logD

- MOLECULE SMILES: "CCN(CC)CCNC(=O)c1cc2cc([125I])ccc2o1.Cl"
  logD: 1.57
- MOLECULE SMILES: "CCN(CC)CCNC(=O)c1nc2cc([125I])ccc2[nH]1.Cl.Cl"
  logD: 1.47
- MOLECULE SMILES: "CCN(CC)CCNC(=O)c1ccc2cc([125I])ccc2c1.Cl"
  logD: 1.33

====

PROTOCOL DETAILS: Ratio of drug level in tumor to liver of C57BL/6 mouse bearing mouse B16-F0 cells at 0.74 to 0.92 MBq, iv after 3 hrs
Assay type: ADME, organism-based
PROTOCOL CONDITIONS: in vivo
VALUE KIND: Ratio

- MOLECULE SMILES: "CCN(CC)CCNC(=O)c1cc2cc([125I])ccc2[nH]1.Cl"
  VALUE KIND: "Ratio"
  ENDPOINT VALUE: 1.96
- MOLECULE SMILES: "CCN(CC)CCNC(=O)c1ccc2cc([125I])ccc2c1.Cl"
  VALUE KIND: "Ratio"
  ENDPOINT VALUE: 2.4
- MOLECULE SMILES: "CCN(CC)CCNC(=O)c1ccc([125I])nc1.Cl.Cl"
  VALUE KIND: "Ratio"
  ENDPOINT VALUE: 3.08

(a) CCN(CC)CCNC(=O)c1cc2c([125I])cccc2cn1.Cl.Cl
(b) CCN(CC)CCNC(=O)c1ccc2cncc([125I])c2n1.Cl.Cl
(Q) Select the item with the higher value of Ratio from the options a and b listed. Please identify the chosen entry by its label.
(A) b
(b: 6.1, a: 3.52)

====

PROTOCOL DETAILS: Biodistribution in intestinal content of C57BL/6 mouse bearing mouse B16-F0 cells at 0.74 to 0.92 MBq, iv after 24 hrs
Assay type: ADME, organism-based
PROTOCOL CONDITIONS: in vivo
VALUE KIND: Drug uptake (% ID/g)

- MOLECULE SMILES: "CCN(CC)CCNC(=O)c1c[nH]c2ccc([125I])cc2c1=O.Cl.Cl"
  Drug uptake / % ID/g: 1.62

(A) CCN(CC)CCNC(=O)c1cc2cc([125I])ccc2[nH]1.Cl
(B) CCN(CC)CCNC(=O)c1ccc2cncc([125I])c2n1.Cl.Cl
(Q) Identify the item whose Drug uptake is the smaller number: A or B Write down the label of the entry you select.
(A) B

(P) CCN(CC)CCNC(=O)c1cc2c([125I])cccc2cn1.Cl.Cl
(Q) CCN(CC)CCNC(=O)c1nc2cc([125I])ccc2[nH]1.Cl.Cl
(Q) Could you please tell me which of these two has the higher Drug uptake: P or Q ? Reply with the label of the item you choose.
(A) Q

====

PROTOCOL DETAILS: Biodistribution in Stomach content of C57BL/6 mouse bearing mouse B16-F0 cells at 0.74 to 0.92 MBq, iv after 3 hrs
Format: ADME, organism-based
PROTOCOL CONDITIONS: in vivo
VALUE KIND: Drug uptake (% ID/g)

- MOLECULE SMILES: "CCN(CC)CCNC(=O)c1cnc2cc([125I])ccc2n1.Cl.Cl"
  UNIT TAG: "% ID/g"
  ENDPOINT VALUE: 20.33
- MOLECULE SMILES: "CCN(CC)CCNC(=O)c1nc2cc([125I])ccc2[nH]1.Cl.Cl"
  UNIT TAG: "% ID/g"
  ENDPOINT VALUE: 17.98
- MOLECULE SMILES: "CCN(CC)CCNC(=O)c1ccc2cc([125I])ccc2n1.Cl.Cl"
  UNIT TAG: "% ID/g"
  ENDPOINT VALUE: 34.72

(a) CCN(CC)CCNC(=O)c1ccc2cc([125I])ccc2c1.Cl
(b) CCN(CC)CCNC(=O)c1ccc([125I])nc1.Cl.Cl
(Q) Hi team, can someone confirm which has the larger Drug uptake: a or b ? Thanks. Use the label to indicate which entry you chose.
(A) b
(b: 42.71 % ID/g, a: 24.69 % ID/g)
